Cited source for all entries: patent US20020177126A1

# Substrate: F protein of wild type RSV A/Long (respiratory syncytial virus, strain A/Long) (UniProt P12568)
# Sequence (P12568 26-574): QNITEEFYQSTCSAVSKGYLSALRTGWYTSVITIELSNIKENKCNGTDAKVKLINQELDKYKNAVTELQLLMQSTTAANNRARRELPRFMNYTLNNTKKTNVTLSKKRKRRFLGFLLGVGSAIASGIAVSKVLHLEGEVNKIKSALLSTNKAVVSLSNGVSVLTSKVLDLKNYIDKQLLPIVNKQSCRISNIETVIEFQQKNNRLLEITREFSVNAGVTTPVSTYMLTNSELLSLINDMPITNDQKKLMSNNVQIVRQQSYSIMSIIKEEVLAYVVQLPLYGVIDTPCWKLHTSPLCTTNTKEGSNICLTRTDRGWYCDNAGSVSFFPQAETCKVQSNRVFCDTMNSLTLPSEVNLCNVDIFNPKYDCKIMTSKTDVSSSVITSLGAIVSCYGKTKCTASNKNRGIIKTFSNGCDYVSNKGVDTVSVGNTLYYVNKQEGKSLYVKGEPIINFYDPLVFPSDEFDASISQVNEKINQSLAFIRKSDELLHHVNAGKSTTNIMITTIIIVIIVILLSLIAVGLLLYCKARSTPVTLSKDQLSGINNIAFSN
# test_name: cell-based or functional assay
experimental_endpoint: Fold Difference (Curve IC50) (fold)
Dear colleague, please return just the value in fold, with no unit written.

// query Any idea what its Fold Difference (Curve IC50) is? The binder is A17d4 (Fab) (Fab, V domains shown) VH: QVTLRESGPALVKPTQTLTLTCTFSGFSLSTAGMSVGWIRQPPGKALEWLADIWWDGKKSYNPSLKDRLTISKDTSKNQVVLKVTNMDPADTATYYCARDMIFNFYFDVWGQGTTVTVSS VL: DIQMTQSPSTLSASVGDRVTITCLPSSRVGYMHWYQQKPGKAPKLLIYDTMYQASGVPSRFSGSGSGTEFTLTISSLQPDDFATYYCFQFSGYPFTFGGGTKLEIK
// result 25

// query Any idea what its Fold Difference (Curve IC50) is? The binder is A4B4 (Fab) (Fab, V domains shown) VH: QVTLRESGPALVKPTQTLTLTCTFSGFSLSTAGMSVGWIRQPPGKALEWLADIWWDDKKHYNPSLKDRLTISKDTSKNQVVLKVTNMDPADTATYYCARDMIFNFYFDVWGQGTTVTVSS VL: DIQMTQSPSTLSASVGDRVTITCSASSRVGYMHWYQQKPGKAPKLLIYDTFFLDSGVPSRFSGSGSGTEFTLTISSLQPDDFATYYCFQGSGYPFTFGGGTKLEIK
// result 11

// query Any idea what its Fold Difference (Curve IC50) is? The binder is A8c7 (Fab) (Fab, V domains shown) VH: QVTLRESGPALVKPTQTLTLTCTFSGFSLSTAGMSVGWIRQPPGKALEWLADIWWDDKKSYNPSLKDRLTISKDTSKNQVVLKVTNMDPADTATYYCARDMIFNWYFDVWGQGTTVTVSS VL: DIQMTQSPSTLSASVGDRVTITCSASSRVGYMHWYQQKPGKAPKLLIYDTRYQSSGVPSRFSGSGSGTEFTLTISSLQPDDFATYYCFQGSGYPFTFGGGTKLEIK
// result 3

// query Any idea what its Fold Difference (Curve IC50) is? The binder is A1h5 (Fab) (Fab, V domains shown) VH: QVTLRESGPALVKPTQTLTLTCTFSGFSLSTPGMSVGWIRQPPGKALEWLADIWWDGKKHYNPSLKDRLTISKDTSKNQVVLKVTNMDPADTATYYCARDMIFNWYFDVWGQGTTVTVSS VL: DIQMTQSPSTLSASVGDRVTITCSLSSSVGYMHWYQQKPGKAPKLLIYDTFFHRSGVPSRFSGSGSGTEFTLTISSLQPDDFATYYCFQGSGYPFTFGGGTKLEIK
// result 2
